Assign CC50 to each entry below.
# Test system: CCRF-CEM
# assay: Cytostatic concentration required to inhibit CEM cell proliferation
# Format: functional
# condition_summary: Homo sapiens
Numbers only, in µM.

Examples with answers:
compound_string: Cc1cn([C@@H]2O[C@@H]3COC(=O)[C@]3(OS(C)(=O)=O)[C@H]2O)c(=O)[nH]c1=O
unit_abbreviation: µM
CC50: 160
//
compound_string: Cc1cn([C@@H]2O[C@H](CO[Si](C)(C)C(C)(C)C)[C@@]3(OS(=O)(=O)C=C3NCC(N)=O)[C@H]2O[Si](C)(C)C(C)(C)C)c(=O)n(C)c1=O
unit_abbreviation: µM
CC50: 14.6

As a next step, examine the molecule that follows.
Problem: // fetch CCRF-CEM CC50 for CCOC(=O)CN1C(=O)CN(C(=O)NC2=CS(=O)(=O)O[C@@]23[C@@H](CO[Si](C)(C)C(C)(C)C)O[C@@H](n2cc(C)c(=O)n(C)c2=O)[C@@H]3O[Si](C)(C)C(C)(C)C)C1=O
Result: 1.42
